- experiment-description: Pyridostigmine level in rat sera after intramuscular dose, by RIA
- Type: in vivo
- study-conditions: rat, serum, im, 1 mg/kg, 2 hr; 1.0 mg/kg i.m.; male rats; read-out: Pyridostigmine in the Rat Sera, Mean ± S.D.
quantity-kind: concentration at 2 h (ng/mL)
Report as a plain number; the unit ng/mL is understood.

Can you share its concentration at 2 h? I mean this molecule: CN(C)C(=O)Oc1ccc[n+](C)c1
21

----------
- experiment-description: Pyridostigmine level in rat sera after intramuscular dose, by RIA
- Type: in vivo
- study-conditions: rat, serum, im, 1 mg/kg, 4 hr; 1.0 mg/kg i.m.; male rats #1, #2, #3 in order; read-out: Pyridostigmine in the Rat Sera, individual animals
- Procedure: To further validate the RIA and the antibody specificity of the present invention, additional rat studies were conducted. Male rats were housed two per cage at 23° C. with a twelve hour on-off light cycle. The animals were given food and water ad libitum. After sixty days, food was withheld for twelve hours. Then pyridostigmine was administered (1.0 mg. of pyridostigmine bromide in physiologic saline/Kg) intramuscularly to the rats weighing between 450 and 550 grams. […]
quantity-kind: concentration at 4 h (ng/mL)
Report as a plain number; the unit ng/mL is understood.

Can you share its concentration at 4 h? I mean this compound: CN(C)C(=O)Oc1ccc[n+](C)c1 [Pyridostigmine]
7.5

----------
- experiment-description: Pyridostigmine level in rat sera after intramuscular dose, by RIA
- Format: in vivo
- study-conditions: rat, serum, im, 1 mg/kg, 10 min; 1.0 mg/kg i.m.; male rats #1, #2 in order; read-out: Pyridostigmine in the Rat Sera, individual animals
quantity-kind: concentration at 10 min (ng/mL)
Report as a plain number; the unit ng/mL is understood.

Can you share its concentration at 10 min? I mean this compound: CN(C)C(=O)Oc1ccc[n+](C)c1 [Pyridostigmine]
450

----------
- experiment-description: Pyridostigmine level in rat sera after intramuscular dose, by RIA
- Format: in vivo
- study-conditions: rat, serum, im, 1 mg/kg, 30 min; 1.0 mg/kg i.m.; male rats #1, #2, #3 in order; read-out: Pyridostigmine in the Rat Sera, individual animals
- Description: To further validate the RIA and the antibody specificity of the present invention, additional rat studies were conducted. Male rats were housed two per cage at 23° C. with a twelve hour on-off light cycle. The animals were given food and water ad libitum. After sixty days, food was withheld for twelve hours. Then pyridostigmine was administered (1.0 mg. of pyridostigmine bromide in physiologic saline/Kg) intramuscularly to the rats weighing between 450 and 550 grams. […]
quantity-kind: concentration at 0.5 h (ng/mL)
Report as a plain number; the unit ng/mL is understood.

Can you share its concentration at 0.5 h? I mean this compound: CN(C)C(=O)Oc1ccc[n+](C)c1 [Pyridostigmine]
250

----------
- experiment-description: Pyridostigmine level in rat sera after intramuscular dose, by RIA
- Assay type: in vivo
- study-conditions: rat, serum, im, 1 mg/kg, 4 hr; 1.0 mg/kg i.m.; male rats; read-out: Pyridostigmine in the Rat Sera, Mean ± S.D.
quantity-kind: concentration at 4 h (ng/mL)
Report as a plain number; the unit ng/mL is understood.

Can you share its concentration at 4 h? I mean this compound: CN(C)C(=O)Oc1ccc[n+](C)c1
6

----------
- experiment-description: Pyridostigmine level in rat sera after intramuscular dose, by RIA
- Assay type: in vivo
- study-conditions: rat, serum, im, 1 mg/kg, 60 min; 1.0 mg/kg i.m.; male rats; read-out: Pyridostigmine in the Rat Sera, Mean ± S.D.
quantity-kind: concentration at 1 h (ng/mL)
Report as a plain number; the unit ng/mL is understood.

Can you share its concentration at 1 h? I mean this compound: CN(C)C(=O)Oc1ccc[n+](C)c1 [Pyridostigmine]
130
